Molecular target: human integrin αvβ6 (Homo sapiens (Human), UniProt P06756+P18564)
Sequence (P06756 31-992): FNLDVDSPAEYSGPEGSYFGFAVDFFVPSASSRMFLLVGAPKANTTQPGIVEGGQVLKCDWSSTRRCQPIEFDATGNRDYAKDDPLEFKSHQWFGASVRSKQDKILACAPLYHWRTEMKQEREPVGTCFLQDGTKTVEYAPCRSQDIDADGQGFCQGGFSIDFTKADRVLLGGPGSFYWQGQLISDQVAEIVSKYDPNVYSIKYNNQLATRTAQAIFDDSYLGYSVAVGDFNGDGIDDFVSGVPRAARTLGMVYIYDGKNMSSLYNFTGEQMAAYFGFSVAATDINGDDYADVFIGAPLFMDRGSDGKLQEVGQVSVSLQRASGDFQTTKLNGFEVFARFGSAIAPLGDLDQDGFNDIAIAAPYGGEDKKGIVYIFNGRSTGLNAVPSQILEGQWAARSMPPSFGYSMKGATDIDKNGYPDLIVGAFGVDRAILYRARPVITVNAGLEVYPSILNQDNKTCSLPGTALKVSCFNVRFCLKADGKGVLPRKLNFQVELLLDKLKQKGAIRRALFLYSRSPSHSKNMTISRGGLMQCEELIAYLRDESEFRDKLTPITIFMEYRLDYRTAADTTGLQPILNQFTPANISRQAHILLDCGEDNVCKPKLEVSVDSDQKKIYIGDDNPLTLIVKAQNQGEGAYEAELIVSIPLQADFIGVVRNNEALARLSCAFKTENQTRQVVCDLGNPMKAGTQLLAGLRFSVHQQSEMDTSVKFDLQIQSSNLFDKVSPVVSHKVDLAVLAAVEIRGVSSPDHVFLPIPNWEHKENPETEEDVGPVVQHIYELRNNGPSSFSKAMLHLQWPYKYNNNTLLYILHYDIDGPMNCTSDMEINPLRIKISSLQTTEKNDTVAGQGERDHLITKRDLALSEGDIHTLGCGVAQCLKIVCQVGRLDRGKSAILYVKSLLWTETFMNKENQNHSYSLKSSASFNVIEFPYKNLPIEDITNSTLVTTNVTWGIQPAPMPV
Sequence (P18564 22-707): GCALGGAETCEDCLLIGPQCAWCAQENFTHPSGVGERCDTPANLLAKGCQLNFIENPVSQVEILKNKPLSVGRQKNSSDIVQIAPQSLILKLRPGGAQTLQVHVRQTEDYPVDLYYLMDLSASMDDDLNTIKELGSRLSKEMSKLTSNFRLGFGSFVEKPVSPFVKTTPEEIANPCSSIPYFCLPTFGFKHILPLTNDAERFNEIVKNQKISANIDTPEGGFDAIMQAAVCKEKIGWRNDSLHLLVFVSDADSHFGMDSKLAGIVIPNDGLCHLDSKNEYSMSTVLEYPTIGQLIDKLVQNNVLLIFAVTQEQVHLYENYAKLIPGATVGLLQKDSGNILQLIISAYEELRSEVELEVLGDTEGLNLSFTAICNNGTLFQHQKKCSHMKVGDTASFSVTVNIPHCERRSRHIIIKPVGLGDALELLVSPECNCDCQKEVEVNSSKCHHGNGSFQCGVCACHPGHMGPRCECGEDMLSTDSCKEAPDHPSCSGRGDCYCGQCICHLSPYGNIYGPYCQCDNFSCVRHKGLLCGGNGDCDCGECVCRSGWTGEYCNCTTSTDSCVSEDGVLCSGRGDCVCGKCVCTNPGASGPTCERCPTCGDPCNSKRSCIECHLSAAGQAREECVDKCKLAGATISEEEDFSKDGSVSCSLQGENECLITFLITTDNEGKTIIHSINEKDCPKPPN
Test: Proximity-based integrin receptor binding assay (ALPHASCREEN) for inhibitor potency
Conditions: inhibition of binding of TGF-b1 LAP to human integrin αvβ6; values given in ranges
pIC50: −log10 of the molar value.
Quantity measured: pIC50

According to the records, this compound O=C(O)C(CCO[C@H]1C[C@@H](CCc2ccc3c(n2)NCCC3)C1)NC(=O)[C@@H](CO)c1ccccc1 (stereo partly drawn) [Compound 70] displays pIC50 of 6.60 to 7.30

According to the records, this compound O=C(NC(CCO[C@H]1C[C@H](CCc2ccc3c(n2)NCCC3)C1)C(=O)O)C1CCCC(F)(F)C1 (stereo partly drawn) [Compound 161] displays pIC50 of > 7.30

According to the records, this compound O=C(O)[C@H](CCO[C@H]1C[C@H](CCc2ccc3c(n2)NCCC3)C1)NC(=O)C1(C(F)(F)F)CCOCC1 [Compound 174] displays pIC50 of > 7.30

According to the records, this compound C[C@H](OC(=O)N[C@@H](CCO[C@H]1C[C@H](CCc2ccc3c(n2)NCCC3)C1)C(=O)O)c1ccccc1 [Compound 141] displays pIC50 of > 7.30

According to the records, this compound Cn1cc(-c2cccc(C(=O)NC(CCOCCCCc3ccc4c(n3)NCCC4)C(=O)O)c2)cn1 (stereo not drawn) [Compound 73] displays pIC50 of 6.60 to 7.30

According to the records, this compound CC(C)COC(=O)N[C@@H](CCO[C@H]1C[C@H](CCc2ccc3c(n2)NCCC3)C1)C(=O)O [Compound 132] displays pIC50 of 6.60 to 7.30

According to the records, this compound O=C(N[C@@H](CCO[C@H]1C[C@H](CCc2ccc3c(n2)NCCC3)C1)C(=O)O)c1ccc(F)cc1 [Compound 16] displays pIC50 of > 7.30

According to the records, this compound CC1(CC(=O)N[C@@H](CCO[C@H]2C[C@H](CCc3ccc4c(n3)NCCC4)C2)C(=O)O)CC1 [Compound 125] displays pIC50 of 6.60 to 7.30

According to the records, this compound CC(C)(C)CC(=O)N[C@@H](CCO[C@H]1C[C@H](CCc2ccc3c(n2)NCCC3)C1)C(=O)O [Compound 122] displays pIC50 of 6.60 to 7.30

According to the records, this compound CCC(CC)CC(=O)N[C@@H](CCO[C@H]1C[C@@H](CCc2ccc3c(n2)NCCC3)C1)C(=O)O [Compound 67] displays pIC50 of 6.60 to 7.30

According to the records, this compound O=C(N[C@@H](CCO[C@H]1C[C@H](CCc2ccc3c(n2)NCCC3)C1)C(=O)O)O[C@H]1CCNC1 [Compound 134] displays pIC50 of 6.60 to 7.30

According to the records, this compound Cc1cc(F)cc(C)c1C(=O)NC(CCOC1CC(CCc2ccc3c(n2)NCCC3)C1)C(=O)O (stereo not drawn) [Compound 175] displays pIC50 of > 7.30

According to the records, this compound CC(C)(C)OC(=O)N1CCC(C(=O)N[C@@H](CCO[C@H]2C[C@H](CCc3ccc4c(n3)NCCC4)C2)C(=O)O)CC1 [Compound 160] displays pIC50 of 6.60 to 7.30

According to the records, this compound O=C(N[C@@H](CCO[C@H]1C[C@H](CCc2ccc3c(n2)NCCC3)C1)C(=O)O)c1cccc(F)c1 [Compound 19] displays pIC50 of > 7.30

According to the records, this compound O=C(NC(CCOC1CC(CCc2ccc3c(n2)NCCC3)C1)C(=O)O)c1cc(F)cc(C(F)(F)F)c1 (stereo not drawn) [Compound 10] displays pIC50 of 6.60 to 7.30

According to the records, this compound O=C(N[C@@H](CCO[C@H]1C[C@H](CCc2ccc3c(n2)NCCC3)C1)C(=O)O)C1CCCc2cn[nH]c21 (relative stereo) [Compound 177] displays pIC50 of 6.60 to 7.30

According to the records, this compound CC(C)(C)OC(=O)NC(CCO[C@H]1C[C@H](CCc2ccc3c(n2)NCCC3)C1)C(=O)O (stereo partly drawn) [Example 12A] displays pIC50 of 6.60 to 7.30

According to the records, this compound O=C(O)C(CCO[C@H]1C[C@H](CCc2ccc3c(n2)NCCC3)C1)NC(=O)[C@@H](CO)c1ccccc1 (stereo partly drawn) [Compound 43] displays pIC50 of 6.00 to 6.60

According to the records, this compound O=C(N[C@@H](CCO[C@H]1C[C@H](CCc2ccc3c(n2)NCCC3)C1)C(=O)O)c1cccc(F)c1F [Compound 23] displays pIC50 of > 7.30

According to the records, this compound CCCCC(=O)NC(CCOCCCCc1ccc2c(n1)NCCC2)C(=O)O (stereo not drawn) [Compound 8] displays pIC50 of 6.00 to 6.60

According to the records, this compound O=C(N[C@@H](CCO[C@H]1C[C@H](CCc2ccc3c(n2)NCCC3)C1)C(=O)O)c1ccc2ncccc2c1 [Compound 54] displays pIC50 of 6.60 to 7.30
